System: UT5600 cells (NTR−) lysogens
Test Details: Replica-plate screening of mutant NTR-expressing lysogens on increasing CB1954 (growth score)
Format: cell-based, E. coli
Design: key: 0: Good growth on all concentrations of CB 1954 = vector; Good growth on 100 and 200, faint on 300, ring of growth on 400 μM; Good growth on 100 and 200, ring growth on 300, none or very faint on 400 μM; Good growth on 100, faint to good on 200, none or very faint on 300 and 400 μM; 4: Good growth on 100 μM, none to ring growth on 200 μM = wild type; Good growth on 50 μM, ring on 100 μM, none on 200, 300 or 400 μM; 6: Faint growth on 50 μM, ring on 100 μM; 7: Good growth on 50 μM, none on 100 μM; 8: Ring growth on 50 μM, none on 100 μM; 9: None or very faint growth on 50 μM, none on 100 μM; 10: None or ring growth on 35 μM
Condition Set: growth of lysogens on agar with kanamycin, IPTG and 0-400 μM CB1954; wild type = 4, higher = more sensitive
Recorded Score, one value per entry.

Solved cases below.
{"Molecule": "F124Q (protein) MDIISVALKRHSTKAFDASKKLTPEQAEQIKTLLQYSPSSTNSQPWHFIVASTEEGKARVAKSAAGNYVFNERKMLDASHVVVFCAKTAMDDVWLKLVVDQEDADGRFATPEAKAANDKGRKFQADMHRKDLHDDAEWMAKQVYLNVGNFLLGVAALGLDAVPIEGFDAAILDAEFGLKEKGYTSLVVVPVGHHSVEDFNATLPKSRLPQNITLTEV", "Score": 8}
{"Molecule": "F124K: NTR mutant, phenylalanine 124 to lysine (protein) MDIISVALKRHSTKAFDASKKLTPEQAEQIKTLLQYSPSSTNSQPWHFIVASTEEGKARVAKSAAGNYVFNERKMLDASHVVVFCAKTAMDDVWLKLVVDQEDADGRFATPEAKAANDKGRKFKADMHRKDLHDDAEWMAKQVYLNVGNFLLGVAALGLDAVPIEGFDAAILDAEFGLKEKGYTSLVVVPVGHHSVEDFNATLPKSRLPQNITLTEV", "Score": "8-10"}

Which Score is listed for N71S (protein) MDIISVALKRHSTKAFDASKKLTPEQAEQIKTLLQYSPSSTNSQPWHFIVASTEEGKARVAKSAAGNYVFSERKMLDASHVVVFCAKTAMDDVWLKLVVDQEDADGRFATPEAKAANDKGRKFFADMHRKDLHDDAEWMAKQVYLNVGNFLLGVAALGLDAVPIEGFDAAILDAEFGLKEKGYTSLVVVPVGHHSVEDFNATLPKSRLPQNITLTEV ? 7

Source of measurements: patent US20050013808A1
